experiment: off-target signal loss in HeLa-CEM21 co-culture – HeLa F-luc CTL cells, cherry-picked, counter-screen for HIV-1 Env fusion inhibitor project, dose response (AID 652040); format: functional, cell-based;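 note: potency for signal decrease marking cytotoxic or nonspecific inhibition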
Calls of active or inactive are those of the source.
Your response should consist of one outcome taken from active, inactive

Reference set, count: 3
>>> classification("C[C@@]12C(=O)N(CCc3c[nH]c4ccccc34)CC(=O)N1[C@H]1c3ccccc3OC[C@@H]1[C@@H]2c1ccccc1")
"active"
>>> classification("CCCCn1c(N)c(N(CC(C)C)C(=O)c2ccc(S(=O)(=O)N(CC)c3ccccc3)cc2)c(=O)[nH]c1=O")
"active"
>>> classification("COc1cccc(/C=N/NC(=O)CC2C(=O)NN=C2C)c1O (centres undefined)")
"inactive"

Please turn your attention to the following entry.
**Query** Recorded test call requested for NC(=O)c1c(Br)n(C2OC(CO)C(O)C2O)c2ncnc(N)c12 (centres undefined)
**Result** active

====

Recorded IC50 for the following compounds
target: Mitogen-activated protein kinase 10 (Homo sapiens, UniProt P53779); assay: Dose response biochemical screening assay for inhibitors of c-Jun N-Terminal Kinase 3 (JNK3). [Related pubchem assays: 746 ]
Sequence (P53779 whole entry): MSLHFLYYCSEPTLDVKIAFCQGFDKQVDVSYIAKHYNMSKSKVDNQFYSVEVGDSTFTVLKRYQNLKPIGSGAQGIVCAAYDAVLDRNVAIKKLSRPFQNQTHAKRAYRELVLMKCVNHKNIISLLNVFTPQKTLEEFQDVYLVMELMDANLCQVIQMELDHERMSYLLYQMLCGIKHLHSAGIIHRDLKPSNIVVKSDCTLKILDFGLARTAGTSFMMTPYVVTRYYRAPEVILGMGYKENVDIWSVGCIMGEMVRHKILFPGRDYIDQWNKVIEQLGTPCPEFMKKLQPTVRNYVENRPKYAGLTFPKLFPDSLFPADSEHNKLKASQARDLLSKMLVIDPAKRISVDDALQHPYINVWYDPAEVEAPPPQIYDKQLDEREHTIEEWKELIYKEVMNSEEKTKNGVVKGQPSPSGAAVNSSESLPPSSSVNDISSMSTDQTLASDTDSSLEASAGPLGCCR

Sample answers from the record:
>>> observed_value("COc1cccc2c(O)c(C(=O)NCc3cccs3)cnc12")
"18.9 µM (not active)"
>>> observed_value("O=C(O)CCSc1ccc2ccccc2n1")
"34.8 µM (not active)"
>>> observed_value("COc1ccc(-c2nnc(-c3ccc(Br)o3)o2)cc1OC")
"> 93.1 µM (not active)"
>>> observed_value("O=C(NCc1nc2ccccc2[nH]1)c1cccs1")
"43 µM (not active)"

Could you now consider this next compound?
**Query** Return reported IC50; argument: COc1cc(C2NC(=O)NC(C)=C2C(=O)OC2CCCC(C)C2)ccc1O (stereo not given)
**Result** 39.4 µM (not active)

====

experiment: inhibitors of firefly luciferase expression or activity, dose response, H4 neuroglioma cells, luminescence (AID 1990); assay type: functional, cell-based
The source made the active and inactive calls.
quantity name: EC50

Known results for molecules:
>>> observed_value("CC1CCc2nc(NCCO)nc(C(F)(F)F)c2C1 (centres undefined)")
"12.5 µM (active)"
>>> observed_value("Nc1ccc(-c2ncc(-c3ccccc3)o2)cc1")
"< 0.1 µM (active)"
>>> observed_value("O=C(CC12CC3CC(CC(C3)C1)C2)NC(=S)NCc1ccccc1")
"13.1 µM (active)"
>>> observed_value("COc1cc(SC)ccc1C(=O)Nc1ccc(Cl)cn1")
"4.03 µM (inconclusive)"
>>> observed_value("O=c1cc(N2CCCCC2)c(-c2ccccc2)nn1Cc1c(Cl)cccc1Cl")
"14.8 µM (active)"

**Query** Any idea what its EC50 is? The molecule is COc1cc(C)c(C(C)C)cc1S(=O)(=O)n1cnc(C)c1
**Result** > 120 µM (not active)

**Query** Okay, and CC1=CC(C)(C)N(S(=O)(=O)c2ccc(C)cc2)c2cc(C)ccc21 ?
**Result** 4.98 µM (inconclusive)

**Query** Request: Cc1ccc(S(=O)(=O)N(C)CC(=O)N/N=C/c2ccc(C)o2)cc1
**Result** > 120 µM (not active)

**Query** Queued: CCOC(=O)C1CCN(C(=O)c2c(C)oc3c2C(=O)c2ccccc2C3=O)CC1
**Result** > 120 µM (not active)

====

molecular target: UniProt:P9WHJ3; assay: Fluorescence Cell-Free Homogeneous Dose Retest to Identify Inhibitors of RecA-Intein Splicing Activity. [Related pubchem assays (depositor defined):AID2097, AID2223, AID489010, AID492950]; type: functional
Active and inactive are the calls of the source.
Please reply with one of these outcomes: active, inactive

Take a look at these entries with their results.
>>> classification("CC1=NNC(=O)C1C(c1ccccc1)C1C(=O)NN=C1C (stereo unspecified)")
"active"
>>> classification("COC(=O)CN1C(=O)C2(C(C#N)=C(N)Oc3c2c(C)nn3-c2ccccc2)c2ccccc21 (stereo unspecified)")
"active"
>>> classification("Cc1sc2ncnc(Sc3nnnn3-c3ccccc3)c2c1C")
"active"

**Query** Which outcome was entered for the molecule COc1ccc(CNC(=O)c2nc(S(=O)(=O)Cc3ccccc3)ncc2Cl)cc1 in this test?
**Result** active

**Query** Same for Cc1cc(C)cc(S(=O)(=O)c2cnc3ccccc3n2)c1
**Result** active

**Query** Field entry: CC/C(=C/c1sc2ccc(C)cc2[n+]1CCO)SC
**Result** active

====

target: Kappa-type opioid receptor (Homo sapiens, UniProt P41145); type: functional
Sequence (P41145 whole entry): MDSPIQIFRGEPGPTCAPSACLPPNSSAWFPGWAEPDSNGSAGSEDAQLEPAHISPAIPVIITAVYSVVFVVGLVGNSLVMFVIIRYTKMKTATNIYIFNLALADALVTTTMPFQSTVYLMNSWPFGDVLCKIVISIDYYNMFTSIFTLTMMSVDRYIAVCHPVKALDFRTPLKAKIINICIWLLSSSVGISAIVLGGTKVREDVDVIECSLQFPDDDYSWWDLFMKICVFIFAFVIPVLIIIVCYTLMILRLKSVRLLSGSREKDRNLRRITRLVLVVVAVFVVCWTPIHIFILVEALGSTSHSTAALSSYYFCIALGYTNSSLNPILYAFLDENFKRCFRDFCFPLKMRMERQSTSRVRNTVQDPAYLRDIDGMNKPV
pIC50: −log10 of the molar value.
quantity name: pIC50

**Query** Reported pIC50 for CC(C)(C)NC(=O)C(=O)NNC(=O)c1ccc(C(C)(C)C)cc1 : what is it?
**Result** < 4.49

====

Biological target: RNA-editing ligase 1, mitochondrial (Trypanosoma brucei brucei, UniProt P86926)
Sequence (P86926 whole entry): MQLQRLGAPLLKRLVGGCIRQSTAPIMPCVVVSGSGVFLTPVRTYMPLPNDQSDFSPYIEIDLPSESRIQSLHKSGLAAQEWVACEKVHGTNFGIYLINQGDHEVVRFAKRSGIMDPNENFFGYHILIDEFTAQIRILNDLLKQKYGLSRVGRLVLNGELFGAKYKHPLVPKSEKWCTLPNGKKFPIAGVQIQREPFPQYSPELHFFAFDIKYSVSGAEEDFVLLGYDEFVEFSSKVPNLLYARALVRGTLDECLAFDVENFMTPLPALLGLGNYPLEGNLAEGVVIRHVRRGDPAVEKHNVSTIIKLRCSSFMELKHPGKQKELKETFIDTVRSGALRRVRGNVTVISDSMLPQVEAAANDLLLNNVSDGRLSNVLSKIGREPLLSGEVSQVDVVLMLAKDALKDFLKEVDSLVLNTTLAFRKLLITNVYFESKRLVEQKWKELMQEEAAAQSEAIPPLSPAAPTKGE
Test: TbREL1 ligase inhibitors, dose response, biochemical, fluorescence, Trypanosoma brucei (AID 1117295)
Assay type: functional
Active and inactive are the calls of the source.
Select the matching outcome among T = active, F = inactive

**Query** Kindly provide the recorded test outcome for the following compound: Nc1ccc2nc3c(O)nc(S)nc3nc2c1
**Result** T

**Query** Then what about the compound COC(=O)C1=C(C)N(Cc2cccc(C(F)(F)F)c2)C(NCc2ccc(OC)cc2)=NC1c1ccccc1C(F)(F)F (centres undefined) ?
**Result** F

**Query** Another compound: Cc1oc2c(c1C(=O)c1ccccc1)C(=O)C(=O)c1ccccc1-2
**Result** F

**Query** Do the same for C[C@@H]1O[C@@H](Oc2c(-c3cc(O)c(O)c(O)c3)oc3cc(O)cc(O)c3c2=O)[C@H](O)[C@H](O)[C@H]1O please
**Result** F

====

Target: Orexin/Hypocretin receptor type 1 (Homo sapiens, UniProt O43613);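 note: antagonism measured against Orexin-A challenge at about its EC80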
Sequence (O43613 whole entry): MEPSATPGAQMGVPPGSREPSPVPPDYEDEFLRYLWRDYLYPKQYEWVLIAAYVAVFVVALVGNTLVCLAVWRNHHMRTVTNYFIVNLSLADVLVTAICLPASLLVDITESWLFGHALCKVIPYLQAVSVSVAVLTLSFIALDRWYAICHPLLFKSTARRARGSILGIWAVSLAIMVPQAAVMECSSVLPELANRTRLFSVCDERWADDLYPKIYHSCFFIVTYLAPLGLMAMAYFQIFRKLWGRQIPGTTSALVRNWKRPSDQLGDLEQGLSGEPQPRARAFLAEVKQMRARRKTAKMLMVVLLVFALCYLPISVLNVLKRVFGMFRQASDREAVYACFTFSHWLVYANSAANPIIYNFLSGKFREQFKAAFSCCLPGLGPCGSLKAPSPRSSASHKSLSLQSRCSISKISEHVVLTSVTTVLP
Assay: Homogeneous Time Resolved Fluorescence (HTRF)-based cell-based high throughput dose response assay for antagonists of the orexin 1 receptor (OX1R; HCRTR1). [Related pubchem assays (depositor defined):AID434989, AID435008, AID463079, AID485270, AID492963, AID492964, AID492965, AID493232, AID504717, AID504718]
Format: functional
The source made the active and inactive calls.
quantity name: IC50

Look over these answered cases.
>>> observed_value("COc1ccc(OC)c(S(=O)(=O)NCC(c2ccco2)N2CCc3ccccc32)c1 (centres undefined)")
"2.3 µM (active)"
>>> observed_value("C=CCn1c(SCc2ccc(C(=O)Nc3nccs3)cc2)nnc1-c1ccc(C)c(Cl)c1")
"0.919 µM (active)"
>>> observed_value("c1ccc(CN2CCN(C3CCCSc4ccccc43)CC2)cc1 (centres undefined)")
"1.59 µM (active)"

Let's switch to this compound now.
**Query** Could you share which IC50 value was measured for CCOc1ccccc1C(=O)NCCNC(=O)c1ccccc1OCC ?
**Result** 4.15 µM (active)
